- subject.of.test: human recombinant BACE2 (Homo sapiens (Human))
- Sequence (Q9Y5Z0 63-518): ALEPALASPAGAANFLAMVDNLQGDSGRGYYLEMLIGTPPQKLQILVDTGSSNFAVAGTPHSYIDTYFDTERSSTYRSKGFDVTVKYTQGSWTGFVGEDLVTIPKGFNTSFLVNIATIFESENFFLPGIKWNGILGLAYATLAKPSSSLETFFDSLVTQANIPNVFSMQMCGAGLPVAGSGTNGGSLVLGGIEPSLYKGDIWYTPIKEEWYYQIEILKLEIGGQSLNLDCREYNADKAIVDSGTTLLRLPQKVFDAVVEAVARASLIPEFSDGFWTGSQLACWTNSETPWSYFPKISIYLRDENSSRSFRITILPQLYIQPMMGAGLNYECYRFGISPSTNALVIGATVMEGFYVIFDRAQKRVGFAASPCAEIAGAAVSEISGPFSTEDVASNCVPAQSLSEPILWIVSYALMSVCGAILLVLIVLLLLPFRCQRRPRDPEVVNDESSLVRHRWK
- assay.notes: In vitro enzymatic BACE2 FRET assay
- Assay type: biochemical
- condition: read-out: IC50 IP (μM) BACE2 enzyme
readout.name: log10 IC50 (log10 of the value in µM)

>>> print(df.to_string())
                                    compound                           subject_of_test  value_reported
 0  C#CCOc1cnc2c(Nc3cc(F)c(F)c([C@@]4(C)N=C(N)S[C@@]5(C(N)=O)C[C@H]54)c3)ncnc2c1  human recombinant BACE2 (Homo sapiens (Human))           -1.45
 1  COC[C@]12C[C@H]1[C@@](C)(c1cc(NC(=O)c3cnc(OCC4CC(F)(F)C4)cn3)cc(F)c1F)N=C(N)S2  human recombinant BACE2 (Homo sapiens (Human))           -0.94
 2  C[C@]1(c2cc(Nc3nccc4nc(OCc5cscn5)cnc34)cc(F)c2F)N=C(N)S[C@@]2(C(F)F)C[C@@H]12  human recombinant BACE2 (Homo sapiens (Human))           -1.45
 3  COC[C@]12C[C@H]1[C@@](C)(c1cc(NC(=O)c3cnc(OCCF)cn3)ccc1F)N=C(N)S2  human recombinant BACE2 (Homo sapiens (Human))           -0.84
 4  CN(C)C(=O)[C@]12C[C@H]1[C@@](C)(c1cc(NC(=O)c3cnc(OCC(F)(F)F)cn3)ccc1F)N=C(N)S2  human recombinant BACE2 (Homo sapiens (Human))           -2.46
 5  NC1=N[C@](CF)(c2cc(NC(=O)c3ccc(Cl)cn3)ccc2F)[C@@H]2C3CSC[C@]32S1 (some centres unmarked)  human recombinant BACE2 (Homo sapiens (Human))           -2.52
 6  C#C[C@H](C)Oc1cnc(C(=O)Nc2ccc(F)c([C@@]3(C)N=C(N)S[C@@]4(COC)C[C@H]43)c2)cn1  human recombinant BACE2 (Homo sapiens (Human))           -1.20
 7  C#CCOc1cnc(C(=O)Nc2cnc(F)c([C@@]3(C)N=C(N)S[C@@]4(CF)C[C@H]43)c2)c(C)n1  human recombinant BACE2 (Homo sapiens (Human))           -1.88
 8  N#CC[C@]12C[C@H]1[C@@](CF)(c1cc(Nc3nccc4cc(C#N)cnc34)ccc1F)N=C(N)S2  human recombinant BACE2 (Homo sapiens (Human))           -2.40
 9  C[C@]1(c2cc(Nc3nccc4nc(OCc5ncco5)cnc34)ccc2F)N=C(N)S[C@@]2(C(F)F)C[C@@H]12  human recombinant BACE2 (Homo sapiens (Human))           -1.50
10  C#CCOc1cnc(C(=O)Nc2cc(F)c(F)c([C@@]3(C)N=C(N)S[C@@]4(COC)C[C@H]43)c2)c(C)n1  human recombinant BACE2 (Homo sapiens (Human))           -1.77
11  CN(C)C(=O)[C@]12C[C@H]1[C@@](C)(c1cc(Nc3ncnc4cc(OCc5ncco5)cnc34)cc(F)c1F)N=C(N)S2  human recombinant BACE2 (Homo sapiens (Human))           -2.60
12  C#CCOc1cnc(C(=O)Nc2cc(F)c(F)c([C@@]3(C)N=C(N)S[C@@]4(C(=O)N5CCOCC5)C[C@H]43)c2)cn1  human recombinant BACE2 (Homo sapiens (Human))           -2.63
13  C#CCOc1cnc2c(Nc3cc(C(=O)OC)c(F)c([C@@]4(C)N=C(N)S[C@@]5(C(=O)OC)C[C@H]54)c3)nccc2n1  human recombinant BACE2 (Homo sapiens (Human))           -0.18

###

- subject.of.test: human recombinant BACE1 (Homo sapiens (Human))
- Sequence (P56817 46-501): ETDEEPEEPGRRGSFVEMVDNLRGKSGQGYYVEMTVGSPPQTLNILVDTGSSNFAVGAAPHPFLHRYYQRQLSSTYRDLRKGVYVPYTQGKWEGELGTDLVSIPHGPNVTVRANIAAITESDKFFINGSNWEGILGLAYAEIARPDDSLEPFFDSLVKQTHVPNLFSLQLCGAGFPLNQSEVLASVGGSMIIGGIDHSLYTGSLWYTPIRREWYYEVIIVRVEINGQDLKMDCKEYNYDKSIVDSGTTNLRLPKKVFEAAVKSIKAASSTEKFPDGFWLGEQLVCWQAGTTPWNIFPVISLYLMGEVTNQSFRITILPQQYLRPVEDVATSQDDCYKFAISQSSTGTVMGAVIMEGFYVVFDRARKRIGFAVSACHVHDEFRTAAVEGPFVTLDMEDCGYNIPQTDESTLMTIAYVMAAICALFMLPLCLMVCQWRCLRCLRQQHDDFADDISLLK
- assay.notes: In vitro enzymatic BACE1 FRET assay
- Type: biochemical
- condition: read-out: IC50 IP (μM) BACE1 enzyme
The recorded IC50 of each item maps onto one of these classes: low range (below 0.0009 µM), mid range (0.0009 µM to below 0.006 µM), high range (0.006 µM or more)

In [3]: df
Out[3]:
                                 item_smiles       group
 0  COC[C@]12C[C@H]1[C@@](C)(c1cc(Nc3nccc4cc(OCc5nccs5)cnc34)cc(F)c1F)N=C(N)S2  high range
 1  C#CCOc1cnc2c(Nc3ccc(F)c([C@@]4(C)N=C(N)S[C@@]5(C(F)F)C[C@@H]45)c3)nccc2n1   low range
 2  C[C@]1(c2cc(NC(=O)c3ccc(OCC(F)(F)F)cn3)cc(F)c2F)N=C(N)S[C@@]2(C#N)C[C@H]21   mid range
 3  CC(C)(CF)NC(=O)[C@]12C[C@H]1[C@@](C)(c1cc(NC(=O)c3cnc(OCC(F)(F)F)cn3)ccc1F)N=C(N)S2   mid range
 4  C#C[C@H](C)Oc1cnc(C(=O)Nc2ccc(F)c([C@@]3(C)N=C(N)S[C@@]4(CF)C[C@H]43)c2)c(C)c1  high range
 5  C#CCOc1cnc(C(=O)Nc2cnc(F)c([C@@]3(C)N=C(N)S[C@@]4(COC)C[C@H]43)c2)cn1   low range
 6  C[C@]1(c2cc(NC(=O)c3ccc(Cl)cn3)cc(CO)c2F)N=C(N)S[C@@]2(CO)C[C@H]21   low range
 7  C#CCOc1cnc(C(=O)Nc2ccc(F)c([C@@]3(C)N=C(N)S[C@@]4(COC)C[C@H]43)c2)c(C)c1   mid range
 8  C[C@]1(c2cc(NC(=O)c3ccc(OCC(F)(F)F)cn3)cc(F)c2F)N=C(N)S[C@@]2(C(F)F)C[C@@H]12   mid range
 9  C#CCOc1cnc(C(=O)Nc2ccc(F)c([C@@]3(C)N=C(N)S[C@@]4(C(F)F)C[C@@H]34)c2)c(C)n1   low range
10  C#CCOc1cnc(C(=O)Nc2ccc(F)c([C@@]3(C)N=C(N)S[C@@]4(C(F)F)C[C@@H]34)c2)c(C)c1   mid range
11  C#C[C@H](C)Oc1cnc(C(=O)Nc2cc(F)c(F)c([C@@]3(C)N=C(N)S[C@@]4(C(F)F)C[C@@H]34)c2)c(C)c1  high range
12  COCCOc1cnc2c(Nc3cc(F)c(F)c([C@@]4(C)N=C(N)S[C@@]5(COC)C[C@H]54)c3)ncnc2c1  high range
13  COc1cnc2c(Nc3cc(F)c(F)c([C@@]4(C)N=C(N)S[C@H]5C[C@H]54)c3)nccc2n1  high range
14  C#CCOc1cnc(C(=O)Nc2cc(F)c(F)c([C@@]3(C)N=C(N)S[C@@]4(C#N)C[C@H]43)c2)cn1   low range
15  COC[C@]12C[C@H]1[C@@](C)(c1cc(NC(=O)c3ncc(O[C@H](C)c4ncco4)cc3C)cc(F)c1F)N=C(N)S2  high range
16  C#CCOc1cnc2c(Nc3ccc(F)c([C@@]4(C)N=C(N)S[C@@]5(CF)C[C@H]54)c3)nccc2n1   low range
17  COC[C@]12C[C@H]1[C@@](C)(c1cc(Nc3nccc4nc(OCc5noc(C)n5)cnc34)cc(F)c1F)N=C(N)S2   mid range
18  C#C[C@H](C)Oc1cnc(C(=O)Nc2ccc(F)c([C@@]3(C)N=C(N)S[C@@]4(C(=O)NC(C)(C)C)C[C@H]43)c2)cn1   low range
19  C#CCOc1cnc(C(=O)Nc2cc(F)c(F)c([C@@]3(C)N=C(N)S[C@@]4(C(F)F)C[C@@H]34)c2)c(C)c1   mid range
20  CN(C)C(=O)/C=C/[C@]12C[C@H]1[C@@](CF)(c1cc(NC(=O)c3ccc(Cl)cn3)ccc1F)N=C(N)S2   low range
21  COC[C@]12C[C@H]1[C@@](C)(c1cc(NC(=O)c3cnc(OCC4(C)COC4)cn3)ccc1F)N=C(N)S2  high range
22  COC[C@]12C[C@H]1[C@@](C)(c1cc(NC(=O)c3cnc(OCc4cc(C)on4)cn3)cc(F)c1F)N=C(N)S2   mid range
23  Cc1cc(OCc2ncco2)cnc1C(=O)Nc1ccc(F)c([C@@]2(C)N=C(N)S[C@@]3(C(F)F)C[C@@H]23)c1  high range
24  COC[C@]12C[C@H]1[C@@](C)(c1cc(NC(=O)c3cnc(OCC(C)C)cn3)ccc1F)N=C(N)S2   mid range

###

- subject.of.test: Recombinant Cat D (Homo sapiens (Human), UniProt P07339)
- Sequence (P07339 65-412): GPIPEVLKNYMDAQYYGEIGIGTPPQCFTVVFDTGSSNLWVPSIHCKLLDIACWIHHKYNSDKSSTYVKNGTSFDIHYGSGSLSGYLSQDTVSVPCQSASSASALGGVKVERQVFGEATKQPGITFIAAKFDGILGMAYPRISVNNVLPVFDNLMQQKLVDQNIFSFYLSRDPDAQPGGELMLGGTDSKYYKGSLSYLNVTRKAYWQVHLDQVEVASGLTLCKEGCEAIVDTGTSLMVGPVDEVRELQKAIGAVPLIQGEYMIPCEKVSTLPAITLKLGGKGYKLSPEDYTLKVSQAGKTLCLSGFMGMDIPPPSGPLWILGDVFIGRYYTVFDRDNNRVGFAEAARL
- assay.notes: In vitro enzymatic Cathepsin D (Cat D) FRET assay
- Type: biochemical
- condition: read-out: IC50 IP (μM) CatD
// assign true (1) if IC50 falls strictly below 800 µM, else false (0) (ties count as false (0))

>>> print(df.to_string())
                                item_smiles      group
0  COC[C@H](C)Oc1cnc(C(=O)Nc2ccc(F)c([C@@]3(C)N=C(N)S[C@@]4(C(=O)NC5CC5)C[C@H]43)c2)cn1   true (1)
1  N#CC[C@]12C[C@H]1[C@@](CF)(c1cc(NC(=O)c3ccc(Cl)cn3)ccc1F)N=C(N)S2  false (0)
2  C#CCOc1cnc2c(Nc3cc(F)c(F)c([C@@]4(C)N=C(N)S[C@@]5(C(N)=O)C[C@H]54)c3)ncnc2c1   true (1)
3  Cc1ncoc1[C@]12C[C@H]1[C@@](CF)(c1cc(NC(=O)c3ccc(Cl)cn3)ccc1F)N=C(N)S2  false (0)
4  NC1=N[C@](CF)(c2cc(Nc3nncc4cc(Cl)cnc34)ccc2F)[C@@H]2C[C@@H]2S1  false (0)
